Hello, the source for this data is patent US20260125378A2, in case you need it.

Target: Full length DGKα (D21-10BG, SignalChem) (Homo sapiens, UniProt P23743)
Sequence (P23743 whole entry): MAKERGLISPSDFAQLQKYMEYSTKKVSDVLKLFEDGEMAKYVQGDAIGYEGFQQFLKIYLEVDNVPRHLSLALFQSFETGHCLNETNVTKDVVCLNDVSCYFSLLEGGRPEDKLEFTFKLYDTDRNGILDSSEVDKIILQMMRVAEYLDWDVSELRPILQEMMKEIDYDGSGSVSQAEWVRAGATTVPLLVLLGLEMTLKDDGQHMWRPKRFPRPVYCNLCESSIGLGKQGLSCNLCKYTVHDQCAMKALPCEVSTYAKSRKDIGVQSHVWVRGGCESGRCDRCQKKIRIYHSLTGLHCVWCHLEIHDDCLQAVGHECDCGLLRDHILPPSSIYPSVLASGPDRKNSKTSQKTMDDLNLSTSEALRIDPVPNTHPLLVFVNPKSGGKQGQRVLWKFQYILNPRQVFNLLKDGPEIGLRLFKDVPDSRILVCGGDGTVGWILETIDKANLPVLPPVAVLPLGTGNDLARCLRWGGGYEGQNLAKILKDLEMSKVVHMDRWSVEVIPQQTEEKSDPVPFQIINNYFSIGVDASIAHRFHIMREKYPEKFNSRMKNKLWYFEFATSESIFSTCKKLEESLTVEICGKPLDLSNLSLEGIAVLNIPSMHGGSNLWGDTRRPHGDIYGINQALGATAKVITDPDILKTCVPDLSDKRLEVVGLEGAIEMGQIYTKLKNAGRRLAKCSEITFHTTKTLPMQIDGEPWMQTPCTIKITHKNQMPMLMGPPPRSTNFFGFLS
hey, just use yes (1) if measured IC50 is less than 30 µM, otherwise no (0)

- CC(c1ccc2c(c1)OC(C)(C)O2)N1C[C@H](C)N(c2nc(=O)n(C)c3c2nc(CC#N)n3C)C[C@H]1C (single isomer, unassigned) [Compound A98b]: yes (1)
- CCn1c(CC#N)nc2c(N3C[C@@H](C)N(C(C)c4ccc5c(c4F)OC(C)(C)O5)C[C@@H]3C)c(F)c(=O)n(C)c21 (single isomer, unassigned) [Compound A190a]: no (0)
- CCn1c(CC#N)nc2c(N3C[C@@H](C)N(C(C)c4cc5c(cc4F)OC(C)(C)O5)C[C@@H]3C)nc(=O)n(C)c21 (single isomer, unassigned) [Compound A174a]: no (0)
- CCn1c(CC#N)nc2c(N3C[C@@H](C)N(C(C)c4ccc5sc(C)nc5c4)C[C@@H]3C)nc(=O)n(C)c21 (some centres unmarked): no (0)
- COC[C@H]1CN(C(C)c2ccc3c(c2)OCCO3)[C@H](C)CN1c1nc(=O)n(C)c2c1nc(CC#N)n2C (single isomer, unassigned) [Compound A11b]: yes (1)
- CC[C@@H]1CN(c2nc(=O)n(C)c3c2nc(CC#N)n3C)[C@@H](C)CN1C(C)c1ccc2c(n1)OC(C)(C)CO2 (single isomer, unassigned) [Compound A159a]: yes (1)
- CC(c1ccc(C(F)(F)F)cn1)N1C[C@H](C)N(c2nc(=O)n(C)c3c2nc(CC#N)n3C)C[C@H]1C (single isomer, unassigned) [Compound A148a]: yes (1)
- COc1cc(F)ccc1C(C)N1C[C@H](C)N(c2nc(=O)n(C)c3c2nc(CC#N)n3C)C[C@H]1C (single isomer, unassigned) [Compound A24b]: no (0)
- CCn1c(CC#N)nc2c(N3C[C@@H](C)N(C(C)c4ccc(C)cc4C(F)(F)F)C[C@@H]3C)nc(=O)n(C)c21 (single isomer, unassigned) [Compound A116a]: no (0)
- CCn1c(CC#N)nc2c(N3C[C@@H](C)N(C(C)c4ccnc5c4OCCC5(F)F)C[C@@H]3C)nc(=O)n(C)c21 (single isomer, unassigned) [Compound A103a]: no (0)
- CC(OC(F)F)c1cc(F)ccc1C(C)N1C[C@H](C)N(c2nc(=O)n(C)c3c2nc(CC#N)n3C)C[C@H]1C (single isomer, unassigned) [Compound A29b]: no (0)
